Biological target: NNMT (hNNMT) (Homo sapiens, UniProt P40261)
Construct: wild type, N-terminal His6 tag kept (no cleavage described), E. coli, construct 31248 Da
Sequence (P40261 1-264): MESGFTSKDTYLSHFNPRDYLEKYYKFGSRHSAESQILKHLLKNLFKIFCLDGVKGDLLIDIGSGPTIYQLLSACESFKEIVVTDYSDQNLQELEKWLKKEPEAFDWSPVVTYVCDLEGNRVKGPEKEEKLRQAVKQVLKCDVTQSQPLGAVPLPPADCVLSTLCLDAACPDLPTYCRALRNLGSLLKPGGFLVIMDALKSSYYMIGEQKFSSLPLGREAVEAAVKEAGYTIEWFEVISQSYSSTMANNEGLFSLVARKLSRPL
Parameters: Intact protein LC/MS covalent labelling, fragments in pools of five, 200 uM each, 4 °C
Details: 24 h, 4 °C, pool of five; 200 µM; covalent
Property name: NNMT
Returns: the value as a bare number; no unit string appended.

Before answering, review these 5 worked examples.
Molecule | NNMT
CCc1nnc(NC(=O)CCl)s1 | 0.42
COc1cc(=O)[nH]c(NC(=O)CCl)n1 | 0
O=C(CCl)Nc1ccccc1N1CCCC1 | 0
C=CC(=O)Nc1cccc(OC)c1 | 0
C=CC(=O)N1CC(OC(=O)NC(C)C)C1 | 0

// query Please indicate NNMT recorded for CC(NC(=O)CCl)c1ccc(F)cc1F (centres unmarked)
// result 0.58

// query Please indicate NNMT recorded for `C#Cc1cccc(NC(=O)NC(=O)CCl)c1`
// result 0

// query Please indicate NNMT recorded for `C=CC(=O)N1CC(S(=O)(=O)CC)C1`
// result 0.14

---

Biological target: OTUB2 (OTUB2A) (Homo sapiens, UniProt Q96DC9)
Construct: full length residues 1-234, E. coli BL21(DE3)-R3, His tag removed by TEV, construct 27312 Da
Sequence (Q96DC9 whole entry, the tested form may be a part): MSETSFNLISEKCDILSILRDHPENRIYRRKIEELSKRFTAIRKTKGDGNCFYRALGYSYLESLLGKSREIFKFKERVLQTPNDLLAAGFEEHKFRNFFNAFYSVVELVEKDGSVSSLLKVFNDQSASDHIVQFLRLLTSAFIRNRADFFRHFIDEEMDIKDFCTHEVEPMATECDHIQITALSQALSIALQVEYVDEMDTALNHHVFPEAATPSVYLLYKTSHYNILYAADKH
Design: Intact protein LC/MS covalent labelling, fragments in pools of five, 200 uM each, 4 °C
Details: 24 h, 4 °C, pool of five; 200 µM; covalent
Decision: OTUB2 beneath 0.1 gives TRUE; OTUB2 meeting or exceeding 0.1 gives FALSE.

Check out these entries, answers already filled in.
Compound | Classification
O=C(CCl)Nc1ccon1 | FALSE
C=CC(=O)Nc1ccc([N+](=O)[O-])cc1 | TRUE
C=CC(=O)Nc1ccccc1C | FALSE
C=CC(=O)NC1CCc2cnn(C(C)C)c2C1 (centres unmarked) | TRUE

// query Please indicate whether the reported OTUB2 of `O=C(CCl)Nc1ccc2c(c1)OC(F)(F)O2` is strictly below 0.1.
// result FALSE

// query Please indicate whether the reported OTUB2 of C=CC(=O)N1CCCCC1c1ccc(C(=O)NC)n1C (centres unmarked) is strictly below 0.1.
// result TRUE

// query Please indicate whether the reported OTUB2 of CC1CCc2c(sc(NC(=O)CCl)c2C#N)C1 (centres unmarked) is strictly below 0.1.
// result TRUE

// query Please indicate whether the reported OTUB2 of `O=C(CCl)NC(=O)NCC(F)(F)F` is strictly below 0.1.
// result FALSE

// query Please indicate whether the reported OTUB2 of `CN(Cc1ccccc1F)C(=O)CCl` is strictly below 0.1.
// result TRUE

// query Please indicate whether the reported OTUB2 of C=CC(=O)N1CC2(CCCC2)c2cc3c(cc2C1C)OCCO3 (centres unmarked) is strictly below 0.1.
// result TRUE

---

Assay: in vitro
Design: species or system CCD841, HEK293
Conditions: human, hb2 cells, read-out: HB-2 Cells Viability (%)
A collection of compounds and their measured viability at 48 h, 10 µM
Number only, in %; omit the unit.

Compound | viability at 48 h, 10 µM [%]
CN(Cc1ccccc1Br)C(=O)CCl | 27.4
C=CC(=O)N1CCCC(c2nncn2C2CC2)C1 (stereo not shown) | 102
Cc1ccc2nc(NC(=O)CCl)sc2c1 | 70.6
C=CC(=O)Nc1ccc2c(c1)OCO2 | 109
O=C(CCl)NC(=O)CN1CCCC1=O | 105

// query Please indicate viability at 48 h, 10 µM recorded for `O=C(CCl)N1CCC(C(=O)N2CCCC2)CC1`
// result 94

// query Please indicate viability at 48 h, 10 µM recorded for `CN(C(=O)CCl)c1nc2ccccc2s1`
// result 88.4

// query Please indicate viability at 48 h, 10 µM recorded for `O=C(CCl)NCc1ccc2c(c1)OCO2`
// result 97.5

// query Please indicate viability at 48 h, 10 µM recorded for `N#CC1(N2CCN(C(=O)CCl)CC2)CCCCC1`
// result 103

// query Please indicate viability at 48 h, 10 µM recorded for `CCc1nnc(NC(=O)CCl)s1`
// result 94.5

// query Please indicate viability at 48 h, 10 µM recorded for `N#CSc1ccc(NC(=O)CCl)c(Br)c1`
// result 23.2

// query Please indicate viability at 48 h, 10 µM recorded for `CN(CC1CC1)C(=O)CCl`
// result 97

// query Please indicate viability at 48 h, 10 µM recorded for `C=CC(=O)NCc1ccc(F)cc1`
// result 105

// query Please indicate viability at 48 h, 10 µM recorded for `O=C(CCl)Nc1cc2c(cc1Br)OCCO2`
// result 15.8

// query Please indicate viability at 48 h, 10 µM recorded for `N#CC1(NC(=O)CCl)CCCC1`
// result 70

// query Please indicate viability at 48 h, 10 µM recorded for `CN(C(=O)CCl)C1=CCCC1`
// result 111

// query Please indicate viability at 48 h, 10 µM recorded for `C=CC(=O)N1CC(Oc2ccc(C#N)cc2)C1`
// result 98.1

// query Please indicate viability at 48 h, 10 µM recorded for `CN(Cc1ccc(Cl)s1)C(=O)CCl`
// result 11

---

Experiment: in vitro
Design: species or system HB2, CCD841
Details: human, hek293 cells
A collection of molecules and their measured viability at 48 h, 10 µM
The reply should read as a number followed by its unit.

Molecule | viability at 48 h, 10 µM
O=C(CCl)Nc1nncs1 | 99.2%
C=CC(=O)Nc1ccc([N+](=O)[O-])cc1 | 87.6%
NC(=O)C1CN(C(=O)CCl)c2ccccc2O1 (centres unmarked) | 31.8%

// query Please indicate viability at 48 h, 10 µM recorded for `C=CC(=O)N1CCC(C(=O)N2CCN(C(C)=O)CC2)CC1`
// result 105%

// query Please indicate viability at 48 h, 10 µM recorded for `Cc1ccc(CNC(=O)CCl)cc1`
// result 93.6%

// query Please indicate viability at 48 h, 10 µM recorded for CC(NC(=O)CCl)C(=O)N1CCCCC1 (centres unmarked)
// result 98.7%

// query Please indicate viability at 48 h, 10 µM recorded for `CN(Cc1cccc(F)c1)C(=O)CCl`
// result 46.1%

// query Please indicate viability at 48 h, 10 µM recorded for `Cc1ccc(Cl)cc1NC(=O)CCl`
// result 9.3%

---

Experiment: in vitro
Parameters: species or system HB2, HEK293
Conditions: human, ccd841 cells
A collection of compounds and their measured viability at 48 h, 10 µM
Number only, in %; omit the unit.

Before answering, review these 2 worked examples.
Compound | viability at 48 h, 10 µM / %
O=C(CCl)N1CCN(c2ccccc2[N+](=O)[O-])CC1 [PCM-0103016] | 61.4
CCc1nc(NC(=O)CCl)sc1C [PCM-0102231] | 78.9

// query Please indicate viability at 48 h, 10 µM recorded for N#CSc1ccc(NC(=O)CCl)c(F)c1 [PCM-0102548]
// result 26.5

// query Please indicate viability at 48 h, 10 µM recorded for CC(C)(C)C1CCc2sc(C(=O)NNC(=O)CCl)cc2C1 (stereo not shown) [PCM-0102260]
// result 29.7

// query Please indicate viability at 48 h, 10 µM recorded for N#CCN(C(=O)CCl)c1ccccc1 [PCM-0102471]
// result 24.4

// query Please indicate viability at 48 h, 10 µM recorded for Cc1sc(NC(=O)CCl)c(C)c1C [PCM-0102968]
// result 57.3

// query Please indicate viability at 48 h, 10 µM recorded for O=C(CCl)Nc1ccccc1C(=O)O [PCM-0102307]
// result 96.5

---

Target: BSA (Bos taurus, UniProt P02769)
Construct: gene ALB
Sequence (P02769 whole entry): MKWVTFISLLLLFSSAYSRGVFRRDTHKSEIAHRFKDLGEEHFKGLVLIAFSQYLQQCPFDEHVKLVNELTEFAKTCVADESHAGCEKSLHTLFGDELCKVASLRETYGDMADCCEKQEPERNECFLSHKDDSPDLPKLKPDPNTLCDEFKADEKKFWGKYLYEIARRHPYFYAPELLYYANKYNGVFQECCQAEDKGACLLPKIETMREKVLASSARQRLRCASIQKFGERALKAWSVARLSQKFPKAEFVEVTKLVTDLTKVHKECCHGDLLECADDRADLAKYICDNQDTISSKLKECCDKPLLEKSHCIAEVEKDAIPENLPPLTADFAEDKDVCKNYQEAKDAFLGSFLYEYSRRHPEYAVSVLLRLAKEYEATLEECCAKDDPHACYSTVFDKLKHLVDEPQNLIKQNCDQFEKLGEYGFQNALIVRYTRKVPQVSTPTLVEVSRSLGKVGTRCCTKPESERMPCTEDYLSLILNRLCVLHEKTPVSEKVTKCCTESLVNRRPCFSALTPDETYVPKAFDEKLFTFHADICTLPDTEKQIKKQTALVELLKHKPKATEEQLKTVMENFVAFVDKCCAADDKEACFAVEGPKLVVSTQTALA
Set-up: Intact protein LC/MS covalent labelling, fragments in pools of five, 200 uM each, 4 °C
Conditions: 24 h, 4 °C, pool of five; 200 µM; covalent
A collection of compounds and their measured BSA
Returns: the value as a bare number; no unit string appended.

Before answering, review these 4 worked examples.
Compound | Target system | Recorded measurement
C=CC(=O)N1CCCC(NC(=O)c2ccc(C(F)(F)F)cc2)C1 (centres unmarked) | BSA (Bos taurus, UniProt P02769) | 0
C=CC(=O)Nc1cccc(Cl)c1 | BSA (Bos taurus, UniProt P02769) | 0
C=CC(=O)N1CCCC2(CCS(=O)(=O)C2)C1 (centres unmarked) | BSA (Bos taurus, UniProt P02769) | 0
CC(NC(=O)CCl)c1ccc(Cl)cc1 (centres unmarked) | BSA (Bos taurus, UniProt P02769) | 0

Now consider a different compound.
// query Please indicate BSA recorded for C=CC(=O)N1CCC(C(=O)c2ccc3c(c2)NC(=O)C(C)O3)CC1 (centres unmarked)
// result 0
